These measurements were taken from ChEMBL document CHEMBL1129963.

- Tested on: Mus musculus
- EXPERIMENT: In vivo antitumor activity against subaxillary implanted 6C3HED lymphosarcoma implanted in C3H mice at a dose of 300 mg/kg administered perorally daily for a period of 8 days.
- Assay type: functional
- CONDITION_SUMMARY: 192 h, route oral
# inhibition in vivo at 300 mg/kg listing for each entry below

[
  {
    "COMPOUND": "Cc1ccc(NC(=O)N=[S+](N)([O-])c2ccc(C)cc2)cc1 (stereo not given)",
    "inhibition in vivo at 300 mg/kg": "40%"
  },
  {
    "COMPOUND": "Cc1ccc([S+](N)([O-])=NC(=O)Nc2ccc(Cl)cc2)cc1 (stereo in doubt; 14)",
    "inhibition in vivo at 300 mg/kg": "89%"
  },
  {
    "COMPOUND": "CCCN[S+]([O-])(=NC(=O)Nc1ccc(Cl)cc1)c1ccc(C)cc1 (stereo not given)",
    "inhibition in vivo at 300 mg/kg": "69%"
  },
  {
    "COMPOUND": "Cc1ccc([S+]([O-])(=NC(=O)Nc2ccc(Cl)cc2)NCCO)cc1 (stereo not given)",
    "inhibition in vivo at 300 mg/kg": "60%"
  },
  {
    "COMPOUND": "Cc1ccc([S+]([O-])(=NC(=O)Nc2ccc(Cl)cc2)Nc2ccccc2)cc1 (stereo not given)",
    "inhibition in vivo at 300 mg/kg": "5%"
  }
]
